Measured logP of individual entries
# experimental_protocol: method code SF-HPLC, from DOI: 10.1016/0378-5173(89)90028-8
No unit in the answer, please; the number alone is enough.

Known results for compounds:
CCn1cc(C(=O)OCOC(C)=O)c(=O)c2ccc(C)nc21    1.21
CCC(=O)OCOC(=O)c1cn(CC)c2nc(C)ccc2c1=O    1.7

Here is the next item to consider.
Form field: reported logP of CCn1cc(C(=O)OCOC(=O)C(C)C)c(=O)c2ccc(C)nc21
2.17

* * *

measure_name: logP

Form field: reported logP of c1ccc2c(c1)Cc1c-2ccc2ccccc12
5.32

* * *

measure_name: logP
No unit in the answer, please; the number alone is enough.

Form field: reported logP of CC(C)(C)C(O)[C@H](Cc1ccc(Cl)cc1)n1cncn1 (stereo in doubt)
3.26

* * *

Measured logD of individual entries
# experimental_protocol: method code SF-RC, from DOI: 10.1016/j.nucmedbio.2007.12.005, PMID: 18355688
# condition: pH 7.4
No unit in the answer, please; the number alone is enough.

Known results for molecules:
CCCCN(C)C(=O)Cc1c(-c2ccccc2)nc2c(Cl)cc(Cl)cn12    2.14
CCCCN(C)C(=O)Cc1c(-c2ccc(Cl)cc2)nc2c(Cl)cc(Cl)cn12    2.2

Here is the next item to consider.
Form field: reported logD of CN(C(=O)Cc1c(-c2ccc(Cl)cc2)nc2c(Cl)cc(Cl)cn12)c1ccccc1
2.2

* * *

# experimental_protocol: method code SF-AS, from DOI: 10.2307/3577276, PMID: 2913608
Measured logP of individual entries
No unit in the answer, please; the number alone is enough.

CCNS(=O)(=O)c1[nH]cnc1[N+](=O)[O-]    -0.37
CC(=O)Nc1ccccc1NS(=O)(=O)c1[nH]cnc1[N+](=O)[O-]    -0.06
CC(C)(C)c1ccc(NS(=O)(=O)c2[nH]cnc2[N+](=O)[O-])cc1    2.28
O=[N+]([O-])c1nc[nH]c1S(=O)(=O)NC1CCCCC1    1.38
CC(=O)Nc1cccc(NS(=O)(=O)c2[nH]cnc2[N+](=O)[O-])c1    0.2

Here is the next item to consider.
Form field: reported logP of Cn1cnc([N+](=O)[O-])c1S(N)(=O)=O
-0.74

* * *

Measured logD of individual entries
# experimental_protocol: method code SF, from DOI: 10.1016/0378-5173(86)90155-9
# condition: pH 7.0
No unit in the answer, please; the number alone is enough.

CS(=O)(=O)CCCOc1ccc([N+](=O)[O-])cc1    1.1

Form field: reported logD of CSCCCOc1ccc([N+](=O)[O-])cc1
3.24

Now give it for NC(=O)CCCCOC(=O)c1ccccc1 too.
1.39

Now give it for NS(=O)(=O)CCCOc1ccc([N+](=O)[O-])cc1 too.
0.97

* * *

# condition: pH 7.4
Measured logD of individual entries
No unit in the answer, please; the number alone is enough.

Known results for compounds:
O=C(Cc1c[nH]c2ccc(Br)cc12)N1CCN(c2ccc([N+](=O)[O-])c3nonc23)CC1    3
COc1cc([N+](=O)[O-])cc(CC(=O)N2CCC(n3c(=O)[nH]c4ccccc43)CC2)c1OC    2.4
O=C(CCc1cccc2c1OCO2)N1CCC2(CC1)C(=O)NCN2c1ccccc1    2.8
O=C(OCc1ccc2snnc2c1)N1CCC2(CC1)C(=O)NCN2c1ccccc1    3.4

Here is the next item to consider.
Form field: reported logD of COc1cc([N+](=O)[O-])cc(C=CC(=O)N2CCC3(CC2)C(=O)NCN3c2ccccc2)c1OC
3
